Assignment: determine reported cell lines with up-regulation of DCC for the given molecules.
- System: DCC expression in panel of 15 cancer cell lines
- Measurement Parameters: drug at IC10, IC30, IC50 or ICMAX, 24 hours
Reply with the number and its unit after it.

Look at this molecule and give its reported cell lines with up-regulation of DCC. CC(=O)O[C@H]1C(=O)[C@@]2(C)[C@H]([C@H](OC(=O)c3ccccc3)[C@]3(O)C[C@H](OC(=O)[C@H](O)[C@@H](NC(=O)c4ccccc4)c4ccccc4)C(C)=C1C3(C)C)[C@]1(OC(C)=O)CO[C@@H]1C[C@@H]2O
53%

Give the measured cell lines with up-regulation of DCC of O=c1[nH]cc(F)c(=O)[nH]1 .
43%

Param item = COc1cccc2c1C(=O)c1c(O)c3c(c(O)c1C2=O)C[C@@](O)(C(=O)CO)C[C@@H]3O[C@H]1C[C@H](N)[C@H](O)[C@H](C)O1 ; retrieve measured cell lines with up-regulation of DCC.
87%

Requested field: cell lines with up-regulation of DCC. Item: N.N.[Cl][Pt][Cl] [Cisplatin]
36%
